# Test system: Zika virus NS2B-NS3 protease (unlinked complex)
# test.summary: Primary screen GU Rhodamine qHTS for Zika virus inhibitors: Unlinked NS2B-NS3 protease assay (AID 1347159); note: nearly all actives have a fitted effect of over 60% in size
# condition.parameters: Recombinant ZIKV NS2B-NS3 protease, Rhodamine110 substrate fluorescence; series mostly up to 107 µM
Results filed as inconclusive are left out. Activity calls are given as the source filed them. Calls come from the whole dose curve; as a rule, active = well fitted inhibition curve with a large enough effect; inconclusive = small, poorly fitted or top-dose-only effect; inactive = no such curve, though single readings can be large or run the other way.
Pick one and only one: 1 (active), 0 (inactive)

These solved cases illustrate the format of a correct answer.
| molecule | label.class |
| --- | --- |
| CN1CCN(C(=O)c2cc3cc(Cl)ccc3[nH]2)CC1 | 0 |
| O=C(O)CC1CCC(c2ccc(-c3ccc(Nc4ccc(C(F)(F)F)nc4)cn3)cc2)CC1 (configuration not stated) | 1 |
| CC1(C)CC[C@]2(C(=O)O)CC[C@]3(C)C(=CCC4[C@@]5(C)CC[C@H](O[C@H]6O[C@H](C(=O)O)[C@@H](O)[C@H](O[C@@H]7O[C@H](CO)[C@H](O)[C@H](O)[C@H]7O)[C@H]6O)C(C)(C)C5CC[C@]43C)[C@@H]2C1 (some centres not stated) | 1 |
| Cc1ccc(C)c(S(=O)(=O)n2cnc3ccccc32)c1 | 0 |
| COc1cc(O)c2c(c1)C1(OC2=O)C(C)=CC(=O)C1O (configuration not stated) | 0 |

Kindly provide the recorded test outcome for the following molecule: Nc1c(-c2ccccc2)nc(Cl)c2c(O)n[nH]c(=O)c12
0

Next: O=C(O)CCc1ccc(NCc2cccc3c2CCCN3CCOc2ccccc2)cc1F
1

Next: O=C(O)c1ccncc1Nc1nn(CCN2CCC(F)(F)CC2)c2ccc(F)cc12
0

Next: CC1(C)CCC[C@@]2(C)[C@H]1[C@H](O)C=C(CO)[C@]2(O)CO
0

Next: C=C(C)C(O)COc1ccc(CC(=O)O)cc1 (configuration not stated)
0

###

# test.summary: P-glycoprotein substrates identified in KB-8-5-11 adenocarcinoma cell line, qHTS therapeutic library screen (AID 1346987); note: nearly all actives have a fitted effect of over 65% in size; for activity change, negative = cytotoxicity: % is set by controls: 0 for no effect and ±100 for the full control effect
# condition.parameters: KB-8-5-11 (P-gp overexpressing) viability, CellTiter-Glo, 72 h; series mostly up to 44.5 µM
Records with an inconclusive call do not appear. The source made the active and inactive calls. The call rests on the fitted dose curve; in most records, active means well fitted inhibition curve with a large enough effect; inconclusive means small, poorly fitted or top-dose-only effect; inactive means flat fitted curve, though single readings scatter. Where a SMILES comes first, the peptide text is derived from it.
outcome.measure: activity change, negative = cytotoxicity

Some entries whose results are on file:
| molecule | activity change, negative = cytotoxicity |
| --- | --- |
| C/C=C(\C)C(=O)OC[C@H]1O[C@@H](O[C@H]2[C@@H](O[C@H]3O[C@H](COC(=O)/C(C)=C/C)[C@@H](O)[C@H](O)[C@H]3O[C@@H]3O[C@H](COC(=O)/C(C)=C/C)[C@@H](O)[C@H](OC(=O)/C(C)=C/C)[C@H]3O)O[C@H](COC(=O)/C(C)=C/C)[C@@H](O)[C@@H]2O)[C@H](O)[C@@H](O)[C@@H]1O | 0.351% [at 9.29 µM] (inactive) |
| CCC(C)/C=C(C)/C=C/C1=CC2=CC(=O)C(C)(O)C(OC(C)=O)C2CO1 (stereo not drawn) | inactive |
| CC1=C2C(=O)C=C(CO[C@@H]3O[C@H](CO)[C@@H](O)[C@H](O)[C@H]3O)[C@@H]2[C@H]2OC(=O)[C@H](C)[C@@H]2CC1 | inactive |
| C[C@@]1(C(=O)O)CCC[C@@]2(C)C3=CC[C@H]4C[C@@]3(CC[C@H]12)CC4(O)CO (stereo partly drawn) | inactive |

Form field: reported activity change, negative = cytotoxicity of COc1ccccc1Oc1c(NS(=O)(=O)c2ccc(C)cn2)nc(-c2ccncc2)nc1OC
inactive

Next: Cn1cc(CCn2cnc(-c3cnn(C)c3)c2-c2ccc(C#N)cc2)cn1
inactive

Next: COC(=O)C1C(O)CCC2CN3CCc4c([nH]c5ccccc45)C3CC21 (stereo not drawn)
inactive

Next: CC(=O)NC1CC(=O)C23C(=O)NC(Cc4c[nH]c5ccccc45)C2C(C)=C(C)C(O)C3/C=C/CC(C)/C=C(/C)C(O)C1O (stereo not drawn)
inactive

Next: CC1=CC(=O)CC(C)(C)[C@@]1(O)/C=C/C(C)O[C@@H]1O[C@H](CO)[C@@H](O)[C@H](O)[C@H]1O (stereo partly drawn)
inactive

Next: CC(=O)OCC1OC(OC2COC(OC3COC(OC4C(OC5C(CO)OC(OC6CCC7(C)C(CCC8(C)C7CC=C7C9CC(C)(C)CCC9(C(=O)OC9OC(CO)C(O)C(O)C9OC9OCC(OC%10OCC(O)(CO)C%10O)C(O)C9O)C(O)CC78C)C6(C)C)C(O)C5O)OCC(O)C4O)C(O)C3O)C(O)C2O)C(OC(=O)/C=C/c2ccccc2)C(O)C1OC(C)=O (stereo not drawn)
0.531% [at 5.11 µM] (inactive)

Next: CC1(C(=O)O)CCCC2(C)C3CC4C5CC3(CCC12)CC45C (stereo not drawn)
inactive

Next: CC(C)C1NC(=O)CNC(=O)C2CCCN2C(=O)C(Cc2c[nH]c3ccccc23)NC(=O)CNC(=O)C(Cc2ccc(O)cc2)NC(=O)CNC1=O (stereo not drawn) (cyclo(GVGYGWP); configuration not given here)
inactive

Next: CC(C)[C@@](O)(c1ccc2cc(OC(F)F)c(OC(F)F)cc2c1)c1cn[nH]n1
inactive

# credit: PubChem BioAssay (NCATS)
